# System: MS2 coat protein
# protocol text: apparent KD of MS2 coat protein; designed switch direction (-1 OFF switch, 1 ON switch): 1; higher = weaker reporter binding
# condition notes: Eterna round: R95; input ligand: microRNA oligo, concentration not stated
In this scheme, each record receives a class according to its apparent KD of MS2 coat protein; the ranges are low (below 20 nM), middle (20 nM to below 30 nM), high (30 nM or more)

seq text	measured target	class assignment
CUAUCUACAGGUGUCUUUGCUCGUCUUAUACAUGAGGAUCACCCAUGUUAUAGCCCGGUGCUUGCGCUGGGCUGAUU [JL ViennaUCT Tearor mod 6] (puzzle: Sensor for hsa-mir-208a)	MS2 coat protein	low
GGUCCAGCCUGAGCUGGACCGAAGCGUGUACAUGAGGAUCACCCAUGUCAUGUACAGGCUUUUUGCUCGUCUUAUUG [JL-shm-2.11 JL Mod] (puzzle: Sensor for hsa-mir-208a)	MS2 coat protein	middle
GUCCGGCUGCCACAGGAUAUACGUGGAUCGACAUGAGGAUCACCCAUGUAUAUCCUAAUAAUUGCGUAGAAGGGUGGUCAGCCGG [Dionbe] (puzzle: Same State 2)	MS2 coat protein	high

Lab log: GCAGCACAUGAGGAUCACCCAUGUCUUCGGAGUCGAGGAUAUGGUCACUGUAAACAGUGGCCAGAAGGCGAGUUGC [SS1 - Son of Teenbexe v5] (puzzle: Same State 1) — assign apparent KD of MS2 coat protein category
middle

Lab log: GCUUCACAUGAGGAUCACCCAUGUCGUCGGAGUCGAGGAUAUGGUAACUGUAAACAGUUGCCAGAAGGCGAGGAGC [SS1 - Son of Teenbexe v10] (puzzle: Same State 1) — assign apparent KD of MS2 coat protein category
middle

Lab log: GGUCCAGCCUGAGCUGGACAAAAGCAUGUACAUGAGGAUCACCCAUGUCAUGUACAAGCUUUUUGCUCGUCAUAAAG [Mat - hsa-mir-208a - 97] (puzzle: Sensor for hsa-mir-208a) — assign apparent KD of MS2 coat protein category
low

Lab log: GACUAUCUAUCUCAGGAUAUCAUGUCAAAGACAUGAGGAUCACCCAUGUACCAGGAAACUGGUUAUGAGAAGGGAGAUAGAUAGG [Mat - Same State 2 - Mod - D43] (puzzle: Same State 2) — assign apparent KD of MS2 coat protein category
middle

Lab log: GCAGCCGGCACUGAGGAUAUUCAUAUUAAAACAUGAGGAUCACCCAUGUAGGCCAGAAGGCCUUGGGAGAAGGCAGGUCGGCUGG [Mat - Same State 2 - Mod of UCT - D63] (puzzle: Same State 2) — assign apparent KD of MS2 coat protein category
high

Lab log: GCCCAGAGUAUAUGGGUACAAGCUUUUUGACAUGAGGAUCACCCAUGUACUCGUCUUAUGUGCAGUCCGUAGACUGC [JL-shm-2.19 Brourd mod] (puzzle: Sensor for hsa-mir-208a) — assign apparent KD of MS2 coat protein category
middle
